# Tested target: Ba/F3_KRAS^G12D cells (Homo sapiens, UniProt P01116, G12D, cells depend on it)
# Sequence (P01116 whole entry G12D): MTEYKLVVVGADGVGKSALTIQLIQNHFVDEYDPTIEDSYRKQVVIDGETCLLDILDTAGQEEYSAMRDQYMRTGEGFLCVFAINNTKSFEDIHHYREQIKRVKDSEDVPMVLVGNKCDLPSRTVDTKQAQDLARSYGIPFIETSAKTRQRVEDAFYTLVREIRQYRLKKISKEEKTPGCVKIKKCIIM
# Test summary: Ba/F3 KRAS^G12D cell proliferation assay (cell-titer Glo)
# Type: cell-based
# Settings: cell growth inhibition, treated with the compounds for 3 days, read-out: BaF3_KRAS^G12D IC50
# Protocol: Cells were seeded at a density of 5×10^3 per well into 96-well plate and incubated overnight. Serial diluted compounds were added to each well. Cells were treated with the compounds for 3 days, after which cell-titer Glo reagent (Promega #G7572) was used to assess cell proliferation. The luminescence signal was then collected on Tecan Spark plate reader. […] Cell growth inhibition of IC50 is calculated with the equation of Y=Bottom+(Top−Bottom)/(1+10^((LogIC50−X)*HillSlope))
What GI50 was measured for each of the following?

For Clc1cc2c(N3CC4CCC(C3)N4)nc(OCC34CCCN3CCC4)nc2nc1-c1cccc2ccccc12 [Compound 2] , write its GI50.
> 5 µM

// fetch GI50 given entry Oc1cc(-c2ncc3c(N4CC5CCC(C4)N5)nc(OC[C@@]45CCCN4C[C@H](F)C5)c(Cl)c3n2)c2c(Cl)c(F)ccc2c1 [Compound 75]
> 5 µM

For the molecule C#Cc1c(F)ccc2cc(O)cc(-c3nc(OC)c4c(N5CC6CCC(C5)N6)nc(OC[C@]56CCCN5[C@@H](COC(=O)N(C)CCCCCCCCCCCCCCCC)CC6)nc4c3F)c12 [Compound 243] , give its reported GI50.
< 0.5 µM

Kindly indicate its recorded GI50. Item: Fc1c(-c2cccc3cccc(Cl)c23)nc(OCC23CCCN2CCC3)c2ccc(N3CCNCC3)nc12 [Compound 31]
0.5 to 5 µM

Identify GI50 associated with the molecule Oc1cc(-c2ncc3c(N4CC5(CCCN5)C4)nc(OC[C@@]45CCCN4C[C@H](F)C5)nc3c2F)c2c(Cl)cccc2c1 [Compound 97]
> 5 µM

Check the records and state GI50 for Oc1cc(-c2nc(C(F)F)c3c(N4CC5CCC(C4)N5)nc(OC[C@@]45CCCN4C[C@H](F)C5)nc3c2F)c2c(Cl)c(F)ccc2c1 [Compound 167]
< 0.5 µM

Measured values drawn from patent US20230357233A1 for this set.
